# ASSAY COMMENT: Blood brain barrier permeation
# Assay type: in vivo, ICR mice
# EXPERIMENTAL PARAMETERS: male, ICR, mouse, brain, po, 10 mg/kg, oral once 10 mg/kg, 1 hr, read-out: Concentration in the brain
PARAMETER: concentration at 1 h (ng/g)

P: Nc1nccc(-c2nc(-c3ccncc3)ccc2O)n1
Q: Cc1cc(-c2nc(-c3ccnc(N)c3F)ccc2O)nc(N)n1
R: Nc1nccc(-c2ccc(O)c(-c3ccnc(N)n3)n2)n1
Lab note: rank above entries, concentration at 1 h ascending. Give the labels in the order requested.
P, R, Q
(P: 71.1 ng/g, R: 296 ng/g, Q: 3120 ng/g)
